- Tgt: Nuclear receptor ROR-alpha (Homo sapiens) (UniProt P35398)
- Assay: Partial agonist activity at GST-fussed RORalpha (unknown origin) assessed as recruitment of TIF2-BAP protein after overnight incubation by pull down assay relative to 7DC
Result type: Emax (%)
Form entry: value (%) — number only.

Hello, please tell me recorded Emax for this one: CC1=C(C(=O)OCC(F)(F)F)C(c2ccc(OCc3ccccc3)cc2)NC(=O)N1 (racemic)
12

Give the reported value of Emax for this record: COC(=O)C1=C(C)NC(=O)NC1c1ccc(OCc2ccccc2)c(OC)c1 (racemic)
33

====

compounds and their reported pEC50
- Tgt: Nuclear receptor ROR-alpha (Homo sapiens, UniProt P35398)
- Sequence (P35398 whole entry): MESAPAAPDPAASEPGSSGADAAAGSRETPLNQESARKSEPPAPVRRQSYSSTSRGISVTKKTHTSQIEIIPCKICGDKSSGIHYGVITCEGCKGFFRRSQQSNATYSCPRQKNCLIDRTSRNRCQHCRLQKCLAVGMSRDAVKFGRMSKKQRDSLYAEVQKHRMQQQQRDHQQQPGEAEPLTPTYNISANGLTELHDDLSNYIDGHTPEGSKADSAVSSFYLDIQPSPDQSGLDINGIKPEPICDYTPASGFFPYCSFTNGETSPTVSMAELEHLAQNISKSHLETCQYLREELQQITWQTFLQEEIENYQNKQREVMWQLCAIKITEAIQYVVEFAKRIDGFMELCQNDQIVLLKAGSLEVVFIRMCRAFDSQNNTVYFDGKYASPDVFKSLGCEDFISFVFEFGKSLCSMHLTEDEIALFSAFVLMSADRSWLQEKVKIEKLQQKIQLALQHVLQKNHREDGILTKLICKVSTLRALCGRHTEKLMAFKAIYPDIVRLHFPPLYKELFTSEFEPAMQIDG
- Assay: Partial agonist activity at GST-fussed RORalpha (unknown origin) assessed as recruitment of TIF2-BAP protein after overnight incubation by pull down assay
// pEC50 here means minus log10 of the molar concentration (mol/L)

Sample answers from the record:
Compound | Reading
CCOc1cc(C2NC(=O)NC(C)=C2C(C)=O)ccc1OCc1ccccc1Cl (stereo in doubt; 1) | 4.90
COC(=O)C1=C(C)NC(=O)NC1c1ccc(OCc2ccccc2)c(OC)c1 (racemic) | 4.88
CCOc1cc(C2NC(=O)NC(C)=C2C(C)=O)ccc1OCc1ccccc1Cl (single isomer, unassigned; enantiomer 1) | 4.96

Identify pEC50 associated with the compound CCOC(=O)C1=C(C)NC(=O)NC1c1ccc(OCCc2ccccc2)c(OC)c1 (racemic)
4.69

====

- Tgt: Nuclear receptor ROR-alpha (Homo sapiens) (UniProt P35398)
- Assay: Partial agonist activity at GST-fussed RORalpha (unknown origin) assessed as recruitment of TIF2-BAP protein after overnight incubation by pull down assay relative to 7DC
Classify as follows. Reported Emax greater than or equal to 60%: Fulfilled. Reported Emax below: Not fulfilled.

Field: example entries. Status: answers known.
Compound | Tgt | Assigned label
CCOc1cc(C2NC(=O)NC(C)=C2C(C)=O)ccc1OCc1ccccc1Cl (single isomer, unassigned; enantiomer 1) | Nuclear receptor ROR-alpha (Homo sapiens) (UniProt P35398) | Fulfilled
COc1cc(C2NC(=O)NC(C)=C2C(=O)OCc2ccc3c(c2)OCO3)ccc1OCc1ccccc1 (racemic) | Nuclear receptor ROR-alpha (Homo sapiens) (UniProt P35398) | Fulfilled

Could you tell me if the measured Emax of COc1cccc(COC(=O)C2=C(C)NC(=O)NC2c2ccc(OCc3ccccc3)c(OC)c2)c1 (racemic) reaches 60% or more?
Not fulfilled

Item C=CCOC(=O)C1=C(C)NC(=O)NC1c1ccc(OCc2ccccc2)c(OC)c1 (racemic) with Emax of 60% or above?
Fulfilled

Is the recorded value of Emax equal to or greater than 60% for this compound? COc1cc(C2NC(=O)NC(C)=C2C(=O)OCc2ccccc2)ccc1OCc1ccccc1 (racemic)
Not fulfilled
